- TARGET OR SYSTEM: SIRT1 (Homo sapiens)
- Sequence (Q96EB6 whole entry): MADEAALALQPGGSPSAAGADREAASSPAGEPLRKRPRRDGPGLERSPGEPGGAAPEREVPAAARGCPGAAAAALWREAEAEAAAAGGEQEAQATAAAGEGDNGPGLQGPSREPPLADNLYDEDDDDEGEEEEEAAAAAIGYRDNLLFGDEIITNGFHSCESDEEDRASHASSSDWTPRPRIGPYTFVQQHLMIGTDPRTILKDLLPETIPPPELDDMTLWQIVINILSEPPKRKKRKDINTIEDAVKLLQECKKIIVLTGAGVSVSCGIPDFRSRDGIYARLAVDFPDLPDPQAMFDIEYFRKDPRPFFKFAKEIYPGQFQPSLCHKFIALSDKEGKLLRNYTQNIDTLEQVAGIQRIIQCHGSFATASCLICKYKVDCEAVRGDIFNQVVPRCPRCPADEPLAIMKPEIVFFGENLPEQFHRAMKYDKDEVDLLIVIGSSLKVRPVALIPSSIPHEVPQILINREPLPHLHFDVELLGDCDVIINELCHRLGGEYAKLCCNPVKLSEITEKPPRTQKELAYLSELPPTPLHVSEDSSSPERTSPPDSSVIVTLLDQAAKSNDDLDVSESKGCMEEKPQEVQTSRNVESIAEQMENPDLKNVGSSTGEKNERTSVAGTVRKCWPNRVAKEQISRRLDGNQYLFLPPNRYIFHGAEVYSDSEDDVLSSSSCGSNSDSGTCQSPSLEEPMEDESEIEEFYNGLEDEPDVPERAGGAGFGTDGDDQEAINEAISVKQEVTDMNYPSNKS
- ASSAY DETAILS: Trp mass spectrometry assay of SIRT1 activity
- Assay type: biochemical
- MEASUREMENT PARAMETERS: percent maximum fold activation of SIRT1; Trp peptide substrate; read-out: Trp % Fold Act
Emax reference
EXPERIMENTAL ENDPOINT: Emax

INSERT INTO results (compound, target_or_system, result) VALUES
  ('O=C(Nc1ccnc(N2CCC2)c1)c1cnc2ccc(-c3ccccc3C(F)(F)F)nn12', 'SIRT1 (Homo sapiens)', '≥ 350%'),
  ('O=C(Nc1cccnc1)c1cnc2ccc(N3CCC[C@@H]3C(F)(F)F)nn12', 'SIRT1 (Homo sapiens)', '≥ 350%'),
  ('O=C(Nc1nc(CN2CCOCC2)cs1)c1cnc2ccc(-c3ccc(F)c(F)c3)nn12', 'SIRT1 (Homo sapiens)', '< 350%'),
  ('O=C(Nc1cccc(CN2CCOCC2)n1)c1cnc2ccc(-c3ccc(F)cc3F)nn12', 'SIRT1 (Homo sapiens)', '< 350%'),
  ('Cc1nn2ccc(N3CCC[C@H]3C(F)(F)F)nc2c1C(=O)Nc1cncc(F)c1', 'SIRT1 (Homo sapiens)', '≥ 350%'),
  ('CC1CCCN1c1ccn2ncc(C(=O)Nc3ccccn3)c2n1 (stereo not shown)', 'SIRT1 (Homo sapiens)', '≥ 350%'),
  ('O=C(Nc1ccnc(N2CCCC2)c1)c1cnc2ccc(-c3ccccc3C(F)(F)F)nn12', 'SIRT1 (Homo sapiens)', '≥ 350%'),
  ('O=C(Nc1cccc(N2CCC2)n1)c1cnc2ccc(-c3ccccc3C(F)F)nn12', 'SIRT1 (Homo sapiens)', '≥ 350%'),
  ('Cc1csc(NC(=O)c2cnc3ccc(-c4ccccc4C(F)(F)F)nn23)n1', 'SIRT1 (Homo sapiens)', '≥ 350%'),
  ('O=C(Nc1cccc(N2CCOCC2)n1)c1cnc2ccc(-c3c(F)cccc3Cl)nn12', 'SIRT1 (Homo sapiens)', '< 350%'),
  ('O=C(Nc1cccnc1)c1cnn2ccc(N3CCC(C(F)(F)F)C3)nc12 (stereo not shown)', 'SIRT1 (Homo sapiens)', '≥ 350%'),
  ('O=C(Nc1cncc(F)c1)c1cnc2ccc(-c3ccccc3C(F)(F)F)nn12', 'SIRT1 (Homo sapiens)', '< 350%'),
  ('Cc1nc2ccc(N3CCC[C@H]3C(F)(F)F)nn2c1C(=O)Nc1ccccn1', 'SIRT1 (Homo sapiens)', '≥ 350%'),
  ('O=C(Nc1ccncc1)c1cnc2ccc(-c3ccc(F)c(F)c3F)nn12', 'SIRT1 (Homo sapiens)', '< 350%'),
  ('CC1CCCN1c1ccn2ncc(C(=O)Nc3cncc(F)c3)c2n1 (stereo not shown)', 'SIRT1 (Homo sapiens)', '≥ 350%'),
  ('Cn1cnc(C(=O)Nc2cnc3ccc(-c4ccccc4C(F)(F)F)nn23)c1', 'SIRT1 (Homo sapiens)', '< 350%');
